Test system: M. tb H37Rv-GFP
assay-name: microbe, parasite or virus in culture
Type: cell-based, Mycobacterium tuberculosis
run-conditions: Mycobacterium tuberculosis, H37RV, 120 h; read-out: Extracellular growth MIC50
For each of the molecules below, state its MIC50.
Quick note: give the figure in µM, leave out the unit.

In: Requested read-out: MIC50. Entry: CCCCCCCCCC[C@@H]1CC[P@](=O)(OC)OC(C)=C1C(=O)OC (relative stereo) [CyC 7(α)]
Out: 92.6

In: // query MIC50 value for entry CCCCCCCCCCCCCCCCO[P@]1(=O)OC[C@H]2COC(=O)C2=C(C)O1 [CyC 18(β), Cyclipostins P]
Out: 1.7

In: // MIC50 lookup, key: CCCCCCCCCCCCCCCCO[P@]1(=O)OC[C@@H]2COC(=O)C2=C(C)O1 [CyC 18(α)]
Out: 24.4

In: I have this molecule here, CCCCCCCCCCCCCCCCOP1(=O)OCCC(C(=O)OC)=C(C)O1 (stereo not drawn) [CyC 17] , and I need its recorded MIC50.
Out: 0.5

====

Test system: M. tb H37Rv-GFP replicating inside Raw264.7 macrophages
assay-name: microbe, parasite or virus in culture
Type: cell-based, Mycobacterium tuberculosis
run-conditions: Mycobacterium tuberculosis, H37RV, 120 h; read-out: Intracellular macrophage growth MIC50
measured-attribute: MIC50 (µM)
Please respond with the number in µM and leave the unit unwritten.

In: Item CCCCCCCCCC[C@@H]1CC[P@](=O)(OC)OC(C)=C1C(=O)OC (relative stereo) has what recorded MIC50?
Out: 4.5

In: Form field: reported MIC50 of CCCCCCCCCCCCC1CCP(=O)(OC)OC(C)=C1C(=O)OC (centres unmarked)
Out: 11.7

In: # get_value(readout='MIC50', item= CCCCCC1CCP(=O)(OC)OC(C)=C1C(=O)OC (centres unmarked) )
Out: 12.6
